All values here come from ChEMBL document CHEMBL1961873.

# Target System: Serine/threonine-protein kinase 4 (Homo sapiens) (UniProt Q13043);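 note: mean inhibition of MST1, part of the GSK PKIS dataset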
# Sequence (Q13043 whole entry): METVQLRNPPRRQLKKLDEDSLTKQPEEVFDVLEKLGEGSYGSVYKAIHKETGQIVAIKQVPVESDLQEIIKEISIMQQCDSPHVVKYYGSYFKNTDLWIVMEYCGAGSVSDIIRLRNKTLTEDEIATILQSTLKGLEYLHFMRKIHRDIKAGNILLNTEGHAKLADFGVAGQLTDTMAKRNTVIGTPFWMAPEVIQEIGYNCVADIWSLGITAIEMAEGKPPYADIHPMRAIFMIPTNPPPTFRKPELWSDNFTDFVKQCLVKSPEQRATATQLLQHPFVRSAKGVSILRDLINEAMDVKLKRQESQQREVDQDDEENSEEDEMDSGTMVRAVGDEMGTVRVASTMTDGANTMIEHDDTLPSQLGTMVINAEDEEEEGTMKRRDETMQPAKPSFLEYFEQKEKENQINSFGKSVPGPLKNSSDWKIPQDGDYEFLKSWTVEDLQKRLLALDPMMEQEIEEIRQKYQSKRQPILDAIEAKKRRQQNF
# Test Parameters: at 1 µM
Recorded Metric: inhibition (%)
# value in %; strip the unit string

COc1cccc(-n2ncc3c(N/N=C/c4cccc(F)c4)ncnc32)c1
8.39
CCn1c(-c2nonc2N)nc2cnc(Oc3cccc(NC(=O)c4ccc(OCCN5CCOCC5)cc4)c3)cc21
3.43
O=C(Nc1n[nH]c2nc(-c3ccco3)c(Br)cc12)C1CC1
4
CCn1c(-c2nonc2N)nc2c(C#CC(C)(C)O)nc(OC[C@@H](N)c3ccccc3)cc21
15.2

// sample CC1=C(C(=O)Nc2ccc3[nH]ncc3c2)C(c2ccc(Cl)c(Cl)c2)CC(=O)N1 (stereo not given) , its inhibition was 4.28

----------
# Target System: MAP kinase-activated protein kinase 3 (Homo sapiens) (UniProt Q16644)
# Sequence (Q16644 whole entry, looked up): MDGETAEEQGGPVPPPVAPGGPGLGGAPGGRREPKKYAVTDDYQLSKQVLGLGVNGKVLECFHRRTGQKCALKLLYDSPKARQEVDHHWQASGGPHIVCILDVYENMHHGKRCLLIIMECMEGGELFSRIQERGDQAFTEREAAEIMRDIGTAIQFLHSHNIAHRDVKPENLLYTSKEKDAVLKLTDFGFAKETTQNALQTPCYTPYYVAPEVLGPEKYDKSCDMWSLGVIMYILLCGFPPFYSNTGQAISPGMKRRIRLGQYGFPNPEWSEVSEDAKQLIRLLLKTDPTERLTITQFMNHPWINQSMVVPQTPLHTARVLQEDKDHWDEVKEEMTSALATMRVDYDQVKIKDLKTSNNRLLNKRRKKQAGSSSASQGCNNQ
# Test Parameters: at 0.1 µM
# Description: GSK_PKIS: MAPKAPK3 mean inhibition at 0.1 uM [Nanosyn]
Recorded inhibition, one value per entry.
# value in %; strip the unit string

CS(=O)(=O)CCN(CC#N)Cc1ccc(-c2ccc3ncnc(Nc4ccc(OCc5cccc(F)c5)c(Cl)c4)c3c2)o1
0.54
COc1ccc(-c2ccncc2)cc1C(N)=O
9.46
CCCN1CCC=C(c2ccc(Nc3nc(Nc4ccccc4C(N)=O)c4cc[nH]c4n3)c(C)c2)C1
3.15
CN(C)c1cc2c(Nc3ccc4nc(Cc5ccccc5)[nH]c4c3)ncnc2cn1
4.79
NS(=O)(=O)c1cccc(-c2ccc3c(NC(=O)C4CC4)n[nH]c3c2)c1
2.07
Cc1nnc(-c2ccc(C)c(-c3ccc(C(=O)Nc4cccc(C#N)c4)cc3)c2)o1
5.27

// sample COC(=O)Nc1nc2cc(Oc3ccc(NC(=O)Nc4cccc(C(=O)O)c4)cc3)ccc2[nH]1 , its inhibition was 0.86

// sample Cc1nn(C)c2cc(N(C)c3ccnc(Nc4cccc(S(N)(=O)=O)c4)n3)ccc12 , its inhibition was 8.73

// sample COc1cc2ncn(-c3cc(OCc4ccccc4Cl)c(C(N)=O)s3)c2cc1OC , its inhibition was -5.38

----------
Recorded inhibition, one value per entry.
# Target System: Ribosomal protein S6 kinase alpha-5 (Homo sapiens);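 note: mean inhibition of MSK1 reported, from a GSK PKIS inhibitor set screen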
# Test Parameters: at 0.1 µM
# value in %; strip the unit string

O=C1NC(=O)C(c2ccccc2Cl)=C1Nc1cccc(O)c1
2.66
Cc1ccc(NC(=O)c2ccnc(N3CCCC3)c2)cc1-c1ccc(C(=O)NCC2CC2)cc1
2.8
O=C1NC(=O)C(N2CCc3ccccc32)=C1c1ccc(Cl)cc1
9.94

# next compound below
// sample Cc1nn(C)c2cc(N(C)c3ccnc(Nc4cccc(S(N)(=O)=O)c4)n3)ccc12 , its inhibition was 10.5

----------
Recorded inhibition, one value per entry.
# Target System: Serine/threonine-protein kinase Nek7 (Homo sapiens);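 note: figures are averaged percent inhibition of NEK7 kinase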
# Test Parameters: at 0.1 µM
# value in %; strip the unit string

Past entries and their recorded results:
N#Cc1c(NC(=O)c2cccc3ccccc23)sc2c1CCCC2
5.78
O=C1NC(=O)C(c2cccc(Cl)c2)=C1Nc1ccc(O)c(Cl)c1
1.78
NCc1ccc(-c2nc(-c3ccc(Cl)c(O)c3)c(-c3ccncc3)[nH]2)cc1
1.75
Fc1cccc(COc2ccc(Nc3ncnc4cc(-c5ccc[nH]5)sc34)cc2Cl)c1
5.51

# next compound below
// sample CS(=O)(=O)Nc1ccc(N/C=C2\C(=O)Nc3ccccc32)cc1 , its inhibition was -4.38

----------
# Target System: Insulin receptor-related protein (Homo sapiens) (UniProt P14616);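 note: mean percent inhibition of IRR, reported within the GSK PKIS screening panel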
# Sequence (P14616 27-742 limits assumed): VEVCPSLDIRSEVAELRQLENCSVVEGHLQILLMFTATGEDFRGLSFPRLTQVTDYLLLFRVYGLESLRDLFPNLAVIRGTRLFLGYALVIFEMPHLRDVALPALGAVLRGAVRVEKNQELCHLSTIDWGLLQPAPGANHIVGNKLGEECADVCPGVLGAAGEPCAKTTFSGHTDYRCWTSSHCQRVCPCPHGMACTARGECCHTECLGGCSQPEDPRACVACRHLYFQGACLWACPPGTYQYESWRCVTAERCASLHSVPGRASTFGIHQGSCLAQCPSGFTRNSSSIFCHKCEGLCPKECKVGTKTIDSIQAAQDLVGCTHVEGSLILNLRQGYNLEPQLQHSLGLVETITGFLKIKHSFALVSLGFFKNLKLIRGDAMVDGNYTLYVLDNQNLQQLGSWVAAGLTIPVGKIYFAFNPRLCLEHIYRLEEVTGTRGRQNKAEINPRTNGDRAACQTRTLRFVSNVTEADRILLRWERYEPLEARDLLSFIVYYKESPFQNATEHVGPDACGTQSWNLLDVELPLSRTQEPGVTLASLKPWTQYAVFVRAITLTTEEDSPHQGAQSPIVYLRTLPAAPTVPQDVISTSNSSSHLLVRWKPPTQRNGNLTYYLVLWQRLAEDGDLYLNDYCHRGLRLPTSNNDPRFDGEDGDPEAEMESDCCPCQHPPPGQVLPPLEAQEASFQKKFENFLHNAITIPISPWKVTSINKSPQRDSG
# Sequence (P14616 747-1297 limits assumed): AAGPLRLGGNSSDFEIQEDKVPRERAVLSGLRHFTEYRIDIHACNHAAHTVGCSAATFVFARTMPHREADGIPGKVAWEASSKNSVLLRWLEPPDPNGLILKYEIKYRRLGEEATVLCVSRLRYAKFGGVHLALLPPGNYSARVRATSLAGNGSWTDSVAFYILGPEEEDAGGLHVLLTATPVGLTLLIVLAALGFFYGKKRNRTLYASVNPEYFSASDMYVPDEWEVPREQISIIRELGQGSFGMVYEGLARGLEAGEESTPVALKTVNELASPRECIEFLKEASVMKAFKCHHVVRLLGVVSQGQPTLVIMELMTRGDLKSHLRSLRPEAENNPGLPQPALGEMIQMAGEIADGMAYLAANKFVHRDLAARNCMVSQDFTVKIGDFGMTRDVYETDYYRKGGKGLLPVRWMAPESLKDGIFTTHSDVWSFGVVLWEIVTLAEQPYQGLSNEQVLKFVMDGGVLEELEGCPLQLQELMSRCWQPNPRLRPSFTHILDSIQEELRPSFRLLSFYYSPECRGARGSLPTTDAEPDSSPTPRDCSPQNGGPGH
# Test Parameters: at 0.1 µM
Recorded Metric: inhibition
Provide a numeric answer, followed by its unit.

Past entries and their recorded results:
CCn1c(-c2nonc2N)nc2cncc(C(=O)N3CC[C@H](N)C3)c21
0.81%
COc1ccc(-c2nn3ncccc3c2-c2ccnc(Nc3ccc(Cl)c(C(F)(F)F)c3)n2)cc1
-1.6%
COc1ccccc1Nc1ncc(-c2ccccc2)o1
3.09%
Cc1nn(C)c2cc(N(C)c3ccnc(Nc4cccc(S(N)(=O)=O)c4)n3)ccc12
0.14%

Insulin receptor-related protein (Homo sapiens) (UniProt P14616) inhibition of CS(=O)(=O)CCNCc1ccc(-c2ccc3ncnc(Nc4ccc(OCc5cccc(F)c5)c(C(F)(F)F)c4)c3c2)o1 is 3.1%

----------
# Target System: Serine/threonine-protein kinase PAK 2 (Homo sapiens);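 note: reported values are mean inhibition of PAK2, averaged over measurements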
# Test Parameters: at 1 µM
Recorded inhibition, one value per entry.
# value in %; strip the unit string

Cc1cc(O)cc(C)c1/C=C/c1cncc(-c2nn[nH]n2)c1
2.67
NCc1ccc(-c2nc(-c3ccc(Cl)c(O)c3)c(-c3ccncc3)[nH]2)cc1
-1.01
CC(=O)Nc1cccc(C#Cc2cncnc2Nc2ccc(OCc3cccc(F)c3)c(Cl)c2)n1
-0.09
COc1ccc2cc(-c3c(-c4ccncc4)nc(-c4ccc([S+](C)[O-])cc4)n3C)ccc2c1 (configuration not stated)
1.31
COc1cc2ncn(-c3cc(OCc4ccccc4Cl)c(C(N)=O)s3)c2cc1OC
-1.31
COc1ccc(-c2coc3ncnc(N)c23)cc1
1.44
COc1cc(C=NNc2ncnc3c2cnn3-c2ccccc2)ccc1O
1.53
O=C1NC(=O)C(N2CCc3ccccc32)=C1c1ccc(Cl)cc1
1.81

// sample NS(=O)(=O)c1ccc(N/N=C2\C(=O)Nc3ccc(C(=O)NCCc4c[nH]cn4)cc32)cc1 , its inhibition was 3.15

// sample N#Cc1c(NC(=O)c2cccc3ccccc23)sc2c1CCCC2 , its inhibition was 1.16

// sample COc1cc(C)c(NC(=O)CN(C)C)cc1Nc1nc(Nc2cccc(F)c2C(N)=O)c2cc[nH]c2n1 , its inhibition was 1.5

// sample CC1=C(C(=O)Nc2ccc3[nH]ncc3c2)C(c2ccc3ccccc3c2)CC(=O)N1 (configuration not stated) , its inhibition was 2.46

----------
Recorded inhibition, one value per entry.
# Target System: Casein kinase I isoform gamma-1 (Homo sapiens);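 note: reported value is the mean inhibition of CK1 gamma-1 kinase activity across replicate measurements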
# Test Parameters: at 1 µM
# value in %; strip the unit string

Past entries and their recorded results:
Cc1cc(O)cc(C)c1/C=C/c1cncc(-c2nn[nH]n2)c1
3.8
CC1=C(C(=O)Nc2ccc3[nH]ncc3c2)C(c2ccc(F)cc2)NC(=O)N1 (centres undefined)
2.31

// sample COc1cc(C)c(NC(=O)CN(C)C)cc1Nc1nc(Nc2cccc(F)c2C(N)=O)c2cc[nH]c2n1 , its inhibition was 12.9

// sample Nc1ncnc2occ(-c3ccc(NC(=O)Nc4cccc(C(F)(F)F)c4)cc3)c12 , its inhibition was 10.1

// sample Fc1cccc(COc2ccc(Nc3ncnc4cc(-c5ccc[nH]5)sc34)cc2Cl)c1 , its inhibition was -0.95

// sample CC1=C(C(=O)Nc2ccc3[nH]ncc3c2)C(c2ccc(Cl)c(Cl)c2)CC(=O)N1 (centres undefined) , its inhibition was 1.68

// sample Fc1cccc(COc2ccc(Nc3ncnc4sc(-c5cccs5)cc34)cc2Cl)c1 , its inhibition was -0.08

// sample CCCN1CCC(Oc2cc(Nc3nc(Nc4cccc(F)c4C(N)=O)c4cc[nH]c4n3)c(OC)cc2Cl)CC1 , its inhibition was 8.29

// sample NC(=O)c1ccc(-c2nc(-c3ccccn3)c(-c3ccc4c(c3)OCO4)[nH]2)cc1 , its inhibition was 4.22

----------
# Target System: Serine/threonine-protein kinase pim-3 (Homo sapiens)
# Test Parameters: at 1 µM
# Description: GSK_PKIS: PIM3 mean inhibition at 1 uM [Nanosyn]
Recorded Metric: inhibition (%)
# value in %; strip the unit string

Past entries and their recorded results:
CS(=O)(=O)CCN(CC#N)Cc1ccc(-c2ccc3ncnc(Nc4ccc(OCc5cccc(F)c5)c(Cl)c4)c3c2)o1
-0.3
CCN1CCC(CC(=O)Nc2n[nH]c3nc(-c4cccs4)c(Br)cc23)CC1
5.95
Nc1ncnc2occ(-c3ccc(NC(=O)Nc4cccc(C(F)(F)F)c4)cc3)c12
0.9
Nc1nc(-c2ccc3c(c2)C(=Cc2cc(Br)c(O)c(Br)c2)C(=O)N3)cs1
42.7
O=C1Nc2ccc(C(=O)c3ccco3)cc2C1=Cc1cc(Cl)c(O)c(Cl)c1
53.4

// sample CS(=O)(=O)CCNCc1ccc(-c2ccc3ncnc(Nc4ccc(OCc5ccccc5)c(Cl)c4)c3c2)o1 , its inhibition was 1.74

// sample N#Cc1c(NC(=O)c2cccc3ccccc23)sc2c1CCCC2 , its inhibition was -1.85

// sample COc1ccc(-c2nn3ncccc3c2-c2ccnc(Nc3ccc(Cl)c(C(F)(F)F)c3)n2)cc1 , its inhibition was 2.53

// sample CCc1cccc(NC(=O)Nc2ccc(Oc3ccc4nc(NC(=O)OC)[nH]c4c3)cc2)c1 , its inhibition was 3.52

----------
Recorded inhibition, one value per entry.
# Target System: Serine/threonine-protein kinase 26 (Homo sapiens)
# Test Parameters: at 0.1 µM
# Description: GSK_PKIS: MST4 mean inhibition at 0.1 uM [Nanosyn]
# value in %; strip the unit string

Past entries and their recorded results:
NC(=O)c1cccc(Nc2nccc(Nc3cccc4[nH]ncc34)n2)c1
-0.32
COc1cc2ncn(-c3cc(OCc4ccccc4C(F)(F)F)c(C(N)=O)s3)c2cc1OC
-4.21

Serine/threonine-protein kinase 26 (Homo sapiens) inhibition of CC1=C(C(=O)Nc2ccc3[nH]ncc3c2)C(c2ccc3ccccc3c2)CC(=O)N1 (stereo not given) is -0.11

Serine/threonine-protein kinase 26 (Homo sapiens) inhibition of Cc1ccc(C(=O)NC2CCCCC2)cc1-c1ccc(C(=O)NCC2CC2)cc1 is 1.41

Serine/threonine-protein kinase 26 (Homo sapiens) inhibition of CC(C)=Cc1cccc2c1/C(=N/Nc1ccc(S(N)(=O)=O)cc1)C(=O)N2 is 4.55

Serine/threonine-protein kinase 26 (Homo sapiens) inhibition of NCc1ccc(-c2nc(-c3ccc(Cl)c(O)c3)c(-c3ccncc3)[nH]2)cc1 is 0.12
